TARGET DESC: T1, Human CXCR2 (human, UniProt P25025 1-360)
T1 sequence: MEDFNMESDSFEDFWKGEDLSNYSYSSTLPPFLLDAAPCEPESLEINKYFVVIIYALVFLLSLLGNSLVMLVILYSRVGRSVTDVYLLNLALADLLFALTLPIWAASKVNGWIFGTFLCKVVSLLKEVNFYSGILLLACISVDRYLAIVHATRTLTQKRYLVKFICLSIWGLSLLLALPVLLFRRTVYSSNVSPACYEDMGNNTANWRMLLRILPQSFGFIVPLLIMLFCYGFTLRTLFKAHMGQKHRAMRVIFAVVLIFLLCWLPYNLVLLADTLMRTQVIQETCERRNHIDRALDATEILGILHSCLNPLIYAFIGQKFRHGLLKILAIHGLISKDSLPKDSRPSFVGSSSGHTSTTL
EXPERIMENTAL DETAILS: cell-based or functional assay
VALUE KIND: [35S]GTPγS accumulation IC50, GRO-α (nM)
State the answer as a number, implicitly in nM.

Task: Quickly give me recorded [35S]GTPγS accumulation IC50, GRO-α for CXCR20020 (bispecific antibody, not shown: small tags and cut ends) EVQLVESGGGLVQAGESLRLSCAASGSTFDFKVMGWYRQPPGKQREGVAAIRLSGNMHYAESVKGRFTISKANAKNTVYLQMNSLRPEDTAVYYCKVNIRGQDYWGQGTQVTVSSGGGGSGGGGSGGGGSGGGGSGGGGSGGGGSGGGGSEVQLVESGGGLVQAGGSLRLSCAASGRTFSDYAMGWFRQAPGKEREFVAAITWNGGRVFYTASVKGRFTISRDNAKNTMYLQMNSLKPEDTAVYYCAADKDRRTDYLGHPVAYWGQGTQVTVSS
Result: 0.634
